Data origin, for the record: patent US20250320312A1

molecular target: Peptide 5: Biotin-…-[Tyr(PC)]-acid; assay: scFv ELISA
Sequence (peptide, as listed by the source): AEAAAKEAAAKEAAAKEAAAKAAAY
Record form. Attribute: OD450. Fill in for each entry.
One number for each entry, in OD450.

PcOxP_DB03_F02 (scFv, V domains shown, scFv in periplasmic extract) VH: EVQLLESGGGLVQPGGSLRLSCAASGFTFSSYYMEWVRQAPGKGLEWVAASRNKANDYTTEYADSVKGRFTISRDNSKNTLYLQMNSLRAEDTAVYYCARDYYDSSYWYFDVWGQGTLVTVSS VL: DIVMTQSPDSLAVSLGERATINCTSSESLLSSKHKVHYLAWYQQKPGQPPKLLIYGASNRYTGVPDRFSGSGSGTDFTLTISSLQAEDVAVYYCAQFYSYPLTFGGGTKVEIK: 1.68
PcOxP_DB01_C01 (scFv, V domains shown, scFv in periplasmic extract) VH: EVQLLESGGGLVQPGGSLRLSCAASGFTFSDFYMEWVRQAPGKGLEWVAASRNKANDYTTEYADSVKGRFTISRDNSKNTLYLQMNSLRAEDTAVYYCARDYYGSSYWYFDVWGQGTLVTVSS VL: DIQMTQSPSSLSASVGDRVTITCVASESLYSSKHKVHYLAWYQQKPGKAPKLLIYGASNRYIGVPSRFSGSGSGTDFTLTISSLQPEDFATYYCAQFYSYPLTFGGGTKVEIK: 1.13
PcOxP_DB03_E02 (scFv, V domains shown, scFv in periplasmic extract) VH: EVQLLESGGGLVQPGGSLRLSCAASGWTFSDFYMEWVRQAPGKGLEWVAASRNKANDYTTEYADSVKGRFTISRDNSKNTLYLQMNSLRAEDTAVYYCARDYYGSSYWYFDVWGQGTLVTVSS VL: DIQMTQSPSSLSASVGDRVTITCTASESLYSQKHKVHYLAWYQQKPGKAPKLLIYGASNRYIGVPSRFSGSGSGTDFTLTISSLQPEDFATYYCAQFYYYPLTFGGGTKVEIK: 1.49

Prompt: Consider the binder shown here: PcOxP_DB01_A12 (scFv, V domains shown, scFv in periplasmic extract) VH: EVQLLESGGGLVQPGGSLRLSCAASGFGFSDFYMEWVRQAPGKGLEWVAASRNKWNDYTTEYADSVKGRFTISRDNSKNTLYLQMNSLRAEDTAVYYCARDYYGSSYWYYDVWGQGTLVTVSS VL: DIQMTQSPSSLSASVGDRVTITCTASESLYSSKHKVHYLAWYQQKPGKAPKLLIYGASNREIGVPSRFSGSGSGTDFTLTISSLQPEDFATYYCQQFYSYPLTFGGGTKVEIK What is its recorded OD450?
Response: 1.04
